Give measured pIC50 for each item. Keep answers brief.
# measurement-target: Cdk9/cyclinT1 (Homo sapiens (Human))
# Sequence (P50750 whole entry): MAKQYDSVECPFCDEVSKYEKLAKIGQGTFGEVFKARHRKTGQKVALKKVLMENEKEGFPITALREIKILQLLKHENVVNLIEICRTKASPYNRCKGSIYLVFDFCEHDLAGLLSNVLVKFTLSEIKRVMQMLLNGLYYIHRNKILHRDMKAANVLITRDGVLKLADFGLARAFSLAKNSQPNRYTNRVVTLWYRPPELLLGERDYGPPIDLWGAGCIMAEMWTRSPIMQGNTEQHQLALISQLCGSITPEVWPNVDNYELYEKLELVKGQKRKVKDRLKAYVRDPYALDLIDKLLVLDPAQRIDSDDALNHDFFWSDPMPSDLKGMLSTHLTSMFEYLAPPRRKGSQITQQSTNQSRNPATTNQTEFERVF
# Sequence (O60563 whole entry partner): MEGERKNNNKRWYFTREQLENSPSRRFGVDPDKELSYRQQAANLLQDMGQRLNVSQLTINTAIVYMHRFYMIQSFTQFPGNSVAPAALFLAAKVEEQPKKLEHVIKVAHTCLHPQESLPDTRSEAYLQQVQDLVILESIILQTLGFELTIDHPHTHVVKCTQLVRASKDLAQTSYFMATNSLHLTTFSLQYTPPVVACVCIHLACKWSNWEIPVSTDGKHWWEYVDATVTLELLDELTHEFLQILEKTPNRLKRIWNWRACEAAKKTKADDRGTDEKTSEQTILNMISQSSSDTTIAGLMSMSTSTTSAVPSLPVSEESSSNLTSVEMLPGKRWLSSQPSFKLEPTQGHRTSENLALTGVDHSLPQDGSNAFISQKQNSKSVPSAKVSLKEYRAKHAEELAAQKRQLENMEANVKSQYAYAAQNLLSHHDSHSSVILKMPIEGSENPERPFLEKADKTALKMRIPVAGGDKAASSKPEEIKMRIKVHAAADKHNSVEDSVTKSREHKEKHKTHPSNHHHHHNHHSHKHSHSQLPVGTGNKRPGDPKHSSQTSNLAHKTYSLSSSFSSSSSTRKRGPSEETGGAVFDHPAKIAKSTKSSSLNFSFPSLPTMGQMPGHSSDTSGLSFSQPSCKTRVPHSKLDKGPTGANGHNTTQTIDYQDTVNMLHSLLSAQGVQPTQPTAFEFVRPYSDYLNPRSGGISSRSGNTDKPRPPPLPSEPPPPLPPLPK
# experiment-notes: Cdk9/CyclinT1 IMAP Protocol (fluorescence polarization kinase assay)
# measurement-setup: Table 2; generated using one of the two Cdk9/cyclinT1 assays (IMAP or Alpha Screen), not specified which; unit inferred
Numbers only, as −log10 of the molar value.

Solved cases (3 shown):
{"columns": ["chemical-string", "pIC50"],
 "data": [
  ["NC[C@H]1CC[C@H](Nc2cc(-c3cccc(NCc4cccc(Cl)c4)n3)c(Cl)cn2)CC1", 8.10],
  ["N[C@H]1CC[C@H](CNc2cc(-c3cccc(NCc4cccc(F)c4)n3)c(Cl)cn2)CC1", 8.05],
  ["N[C@H]1CC[C@H](Nc2cc(-c3cncc(NCc4cccc(F)c4)n3)c(Cl)cn2)CC1", 8.10]
]}

Next up:
Fill in the blank: the reported pIC50 of `N[C@H]1CC[C@H](Nc2cc(-c3cccc(NCc4cccc(F)c4)n3)c(F)cn2)CC1` is ____.
8.10

Provenance of the data: patent US8778951B2
